FYI, the data here is from paper PMC13077713.

# Assay Protocol: Cytotoxicity, CellTiter 96 cell proliferation assay, PBM cells
# Type: cell-based, human
# Condition Info: human, peripheral blood mononuclear (PBM) cells
Below: a set of entries, each annotated with reported CC50.
Respond with the bare value in µM.

CCCCCCCCCCCCn1cc(CNC(=O)C(=O)c2c(C)c(C(=O)Nc3ccc(F)c(F)c3)n(C)c2C)nn1 : 1.6

Here is another compound to look at.
For the compound `Cc1c(C(=O)C(=O)NCc2c[nH]nn2)c(C)n(C)c1C(=O)Nc1ccc(F)c(F)c1` , what CC50 is on record?
74

* * *

# Test system: human peripheral blood mononuclear (PBM) cells
# Assay Protocol: Cytotoxicity, CellTiter 96 cell proliferation assay, PBM cells
# Type: cell-based
# Condition Info: read-out: Cytotoxicity, CC50 PBM; PBM cells
compounds and their reported CC50

Field: example entries. Status: answers known.
Cc1c(C(=O)C(=O)NCc2cn(CCCCCCCCCCCCCCCCn3cc(CNC(=O)C(=O)c4c(C)c(C(=O)Nc5ccc(F)c(F)c5)n(C)c4C)nn3)nn2)c(C)n(C)c1C(=O)Nc1ccc(F)c(F)c1 : > 100 µM
C#CCNC(=O)C(=O)c1c(C)c(C(=O)Nc2ccc(F)c(F)c2)n(C)c1C : > 100 µM

Fill in the blank: the reported CC50 of `Cc1c(C(=O)C(=O)NCc2cn(CCCCCCn3cc(CNC(=O)C(=O)c4c(C)c(C(=O)Nc5ccc(F)c(F)c5)n(C)c4C)nn3)nn2)c(C)n(C)c1C(=O)Nc1ccc(F)c(F)c1` is ____.
> 100 µM

// next record `Cc1c(C(=O)C(=O)NCc2cn(CCCCCCCCn3cc(CNC(=O)C(=O)c4c(C)c(C(=O)Nc5ccc(F)c(F)c5)n(C)c4C)nn3)nn2)c(C)n(C)c1C(=O)Nc1ccc(F)c(F)c1`
> 100 µM

// query: `Cc1c(C(=O)C(=O)NCc2cn(CCCCCCCCCCCCn3cc(CNC(=O)C(=O)c4c(C)c(C(=O)Nc5ccc(F)c(F)c5)n(C)c4C)nn3)nn2)c(C)n(C)c1C(=O)Nc1ccc(F)c(F)c1`
63.4 µM

* * *

Catalogue of CC50 readings, one per entry.
# Tested on: African green monkey kidney (Vero) cells
# Assay Protocol: Cytotoxicity, CellTiter 96 cell proliferation assay, Vero cells
# Format: cell-based
# Condition Info: read-out: Cytotoxicity, CC50 Vero; Vero cells

Cc1c(C(=O)C(=O)NCc2cn(CCCCCCCCCCn3cc(CNC(=O)C(=O)c4c(C)c(C(=O)Nc5ccc(F)c(F)c5)n(C)c4C)nn3)nn2)c(C)n(C)c1C(=O)Nc1ccc(F)c(F)c1 [Compound 6c] : > 100 µM
C#CCNC(=O)C(=O)c1c(C)c(C(=O)Nc2ccc(F)c(F)c2)n(C)c1C [GLP-26] : 30.5 µM
Cc1c(C(=O)C(=O)NCc2cn(CCCCCCn3cc(CNC(=O)C(=O)c4c(C)c(C(=O)Nc5ccc(F)c(F)c5)n(C)c4C)nn3)nn2)c(C)n(C)c1C(=O)Nc1ccc(F)c(F)c1 [Compound 6a] : > 100 µM
Cc1c(C(=O)C(=O)NCc2cn(CCCCCCCCCCCCCCCCCCn3cc(CNC(=O)C(=O)c4c(C)c(C(=O)Nc5ccc(F)c(F)c5)n(C)c4C)nn3)nn2)c(C)n(C)c1C(=O)Nc1ccc(F)c(F)c1 [Compound 6g] : > 100 µM
Cc1c(C(=O)C(=O)NCc2cn(CCCCCCCCCCCCCCCCn3cc(CNC(=O)C(=O)c4c(C)c(C(=O)Nc5ccc(F)c(F)c5)n(C)c4C)nn3)nn2)c(C)n(C)c1C(=O)Nc1ccc(F)c(F)c1 [Compound 6f] : > 100 µM

Param item = Cc1c(C(=O)C(=O)NCc2cn(CCCCCCCCCCCCCCn3cc(CNC(=O)C(=O)c4c(C)c(C(=O)Nc5ccc(F)c(F)c5)n(C)c4C)nn3)nn2)c(C)n(C)c1C(=O)Nc1ccc(F)c(F)c1 [Compound 6e] ; retrieve measured CC50.
> 100 µM

// same read-out, input: Cc1c(C(=O)C(=O)NCc2cn(CCCCCCCCn3cc(CNC(=O)C(=O)c4c(C)c(C(=O)Nc5ccc(F)c(F)c5)n(C)c4C)nn3)nn2)c(C)n(C)c1C(=O)Nc1ccc(F)c(F)c1 [Compound 6b]
> 100 µM

Then Cc1c(C(=O)C(=O)NCc2cn(CCCCCCCCCCCCn3cc(CNC(=O)C(=O)c4c(C)c(C(=O)Nc5ccc(F)c(F)c5)n(C)c4C)nn3)nn2)c(C)n(C)c1C(=O)Nc1ccc(F)c(F)c1 [Compound 6d] ?
> 100 µM
